Biological target: EZH2 Y641F mutant (PRC2 enzyme) (Homo sapiens (Human), UniProt Q15910, Y641F)
Sequence (Q15910 whole entry Y641F): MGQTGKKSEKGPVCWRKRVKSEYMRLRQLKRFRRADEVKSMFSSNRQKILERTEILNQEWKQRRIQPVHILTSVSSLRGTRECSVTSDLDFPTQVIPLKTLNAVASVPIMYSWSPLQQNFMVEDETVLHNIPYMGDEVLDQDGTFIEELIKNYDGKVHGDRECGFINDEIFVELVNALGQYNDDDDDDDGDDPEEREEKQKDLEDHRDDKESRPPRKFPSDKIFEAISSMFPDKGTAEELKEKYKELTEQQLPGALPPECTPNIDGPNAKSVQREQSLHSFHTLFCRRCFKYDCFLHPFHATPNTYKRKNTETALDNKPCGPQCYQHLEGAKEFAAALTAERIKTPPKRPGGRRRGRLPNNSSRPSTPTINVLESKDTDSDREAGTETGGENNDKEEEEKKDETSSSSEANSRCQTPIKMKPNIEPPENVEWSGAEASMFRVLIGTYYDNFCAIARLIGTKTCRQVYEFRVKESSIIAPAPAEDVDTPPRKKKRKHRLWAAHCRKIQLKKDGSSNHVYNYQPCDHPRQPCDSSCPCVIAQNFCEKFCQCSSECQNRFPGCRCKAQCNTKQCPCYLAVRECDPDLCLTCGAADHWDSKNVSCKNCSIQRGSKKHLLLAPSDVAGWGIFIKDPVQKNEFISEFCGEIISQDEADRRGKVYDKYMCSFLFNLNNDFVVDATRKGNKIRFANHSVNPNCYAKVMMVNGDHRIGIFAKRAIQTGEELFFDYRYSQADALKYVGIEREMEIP
Sequence (O75530 whole entry partner): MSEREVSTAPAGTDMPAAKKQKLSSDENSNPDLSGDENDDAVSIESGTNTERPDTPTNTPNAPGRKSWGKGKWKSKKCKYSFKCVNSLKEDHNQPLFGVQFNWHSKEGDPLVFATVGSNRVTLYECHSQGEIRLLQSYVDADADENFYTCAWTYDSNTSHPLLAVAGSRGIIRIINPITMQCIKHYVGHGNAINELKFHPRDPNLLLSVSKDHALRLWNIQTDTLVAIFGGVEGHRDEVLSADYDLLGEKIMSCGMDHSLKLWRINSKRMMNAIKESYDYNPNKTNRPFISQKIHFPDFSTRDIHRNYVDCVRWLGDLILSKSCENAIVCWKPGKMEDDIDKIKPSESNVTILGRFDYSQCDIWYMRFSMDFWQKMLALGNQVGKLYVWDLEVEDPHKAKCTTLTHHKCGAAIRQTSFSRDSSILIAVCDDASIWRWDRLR
Sequence (Q15022 whole entry partner): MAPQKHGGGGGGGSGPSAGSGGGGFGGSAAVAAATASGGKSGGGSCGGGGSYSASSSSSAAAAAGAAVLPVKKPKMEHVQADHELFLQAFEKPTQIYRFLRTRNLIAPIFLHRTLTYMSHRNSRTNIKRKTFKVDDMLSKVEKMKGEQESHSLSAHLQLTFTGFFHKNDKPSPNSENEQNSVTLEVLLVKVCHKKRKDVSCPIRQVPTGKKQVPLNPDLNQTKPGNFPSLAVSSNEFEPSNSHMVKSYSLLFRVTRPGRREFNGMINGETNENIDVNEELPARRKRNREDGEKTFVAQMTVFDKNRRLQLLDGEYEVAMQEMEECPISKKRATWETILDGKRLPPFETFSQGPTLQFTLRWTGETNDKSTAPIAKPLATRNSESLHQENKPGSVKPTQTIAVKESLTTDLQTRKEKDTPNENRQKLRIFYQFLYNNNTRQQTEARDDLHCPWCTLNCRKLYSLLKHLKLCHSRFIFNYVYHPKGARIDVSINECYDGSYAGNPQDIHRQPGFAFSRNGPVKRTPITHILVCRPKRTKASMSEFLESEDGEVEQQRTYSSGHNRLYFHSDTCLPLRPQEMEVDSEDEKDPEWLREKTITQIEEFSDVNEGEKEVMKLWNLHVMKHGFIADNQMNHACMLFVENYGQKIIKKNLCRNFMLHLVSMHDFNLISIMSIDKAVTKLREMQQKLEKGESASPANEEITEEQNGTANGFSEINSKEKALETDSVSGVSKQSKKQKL
Sequence (Q09028 whole entry partner): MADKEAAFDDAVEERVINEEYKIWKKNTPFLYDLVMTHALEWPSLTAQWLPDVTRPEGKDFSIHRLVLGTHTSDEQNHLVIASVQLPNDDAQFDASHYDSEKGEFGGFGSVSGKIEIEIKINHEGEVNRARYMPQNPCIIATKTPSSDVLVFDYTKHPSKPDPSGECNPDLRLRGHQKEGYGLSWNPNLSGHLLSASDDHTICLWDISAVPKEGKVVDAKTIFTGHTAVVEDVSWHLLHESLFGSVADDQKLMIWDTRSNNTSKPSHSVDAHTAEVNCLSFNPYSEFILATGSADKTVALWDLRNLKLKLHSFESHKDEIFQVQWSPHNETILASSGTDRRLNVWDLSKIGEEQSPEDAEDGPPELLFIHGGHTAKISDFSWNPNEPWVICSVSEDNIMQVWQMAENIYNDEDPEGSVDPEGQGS
Test: PRC2 enzyme assay on peptide substrate, EZH2 Y641F mutant (H3K27me2 peptide, 3H-SAM Flashplate)
Details: Y641F mutant PRC2 4 nM
Measured Metric: IC50 (nM)

{"columns": ["Molecule Smiles", "Experimental System", "Result"],
 "data": [
  ["CCn1[nH]c(=O)c(CNC(=O)c2cc(Cl)cc(N(CC)[C@H]3CC[C@H](N(C)Cc4ccc(OC)cc4)CC3)c2C)c1C", "EZH2 Y641F mutant (PRC2 enzyme) (Homo sapiens (Human), UniProt Q15910, Y641F)", 504],
  ["CCN(c1cc(Cl)cc(C(=O)NCc2c(N3CCCCC3)n(C)[nH]c2=O)c1C)[C@H]1CC[C@H](N(C)C)CC1", "EZH2 Y641F mutant (PRC2 enzyme) (Homo sapiens (Human), UniProt Q15910, Y641F)", 14.4],
  ["CCN(c1cc(Cl)cc(C(=O)NCc2c(C)n(C)[nH]c2=O)c1C)[C@H]1CC[C@H](N(C)Cc2ccc(OC)cc2)CC1", "EZH2 Y641F mutant (PRC2 enzyme) (Homo sapiens (Human), UniProt Q15910, Y641F)", 11]
]}

[P] CCN(c1cc(Cl)cc(C(=O)NCc2c(C)[nH]n(C(C)C)c2=O)c1C)[C@H]1CC[C@H](N(C)C)CC1
[Q] CCN(c1cc(Cl)cc(C(=O)NCc2c(N3CCCC3)n(C)[nH]c2=O)c1C)[C@H]1CC[C@H](N(C)C)CC1
Input line: Hi! Which is lower in terms of IC50, the first one P or the second one Q ? Indicate which entry you chose by stating its label.
Output line: Q
